Record form. Attribute: pIC50. Fill in for each entry.
Scale: pIC50 equals -log10([C]), with [C] in mol/L.

Qu. Give Acetylcholinesterase (Homo sapiens, UniProt P22303) pIC50 for `O=C(NCCCNc1c2c(nc3ccccc13)CCCC2)Oc1ccc(-c2cc3cccnc3[nH]2)cc1`
Ans. 6.63

Qu. Param readout= pIC50; system= Acetylcholinesterase (Homo sapiens, UniProt P22303); entry= `O=C(NCCCCCCNc1c2c(nc3cc(F)ccc13)CCCC2)Oc1ccc(-c2cc3cccnc3[nH]2)cc1` ; returns value.
Ans. 7.52

Qu. Find the measured pIC50: item `C[C@@H](c1cccc(OC(=O)NCCCCNc2c3c(nc4ccccc24)CCCC3)c1)N(C)C` , target or system Acetylcholinesterase (Homo sapiens, UniProt P22303).
Ans. 6.53

Qu. For the record `O=C(NCCCCCNc1c2c(nc3cc(Br)ccc13)CCCC2)Oc1ccc(-c2cc3cccnc3[nH]2)cc1` , what value of pIC50 is listed for Acetylcholinesterase (Homo sapiens, UniProt P22303)?
Ans. 7.23

Data origin: ChEMBL document CHEMBL5528025
